For each of the compounds below, state its GI50.
System: IGROV-1
Experiment: NCI tumour cell line growth inhibition, 48 h
The source made the active and inactive calls. Rule as the data show it: active = GI50 up to about 1.1 µM and inactive = higher.

Use the examples below as a reference point.
[
  {
    "compound": "Nc1ccc2c(SCC(=O)Nc3ccccc3-c3ccccc3NC(=O)CSc3c4ccccc4nc4cc(N)ccc34)c3ccccc3nc2c1",
    "GI50": "27 µM (inactive)"
  },
  {
    "compound": "S=C1CC(c2ccccc2)Sc2ccc(Cl)cc2N1 (stereo not given)",
    "GI50": "90.8 µM (inactive)"
  },
  {
    "compound": "CN/C(=N\\C#N)N(Cc1ccccc1)Cc1ccccc1",
    "GI50": "> 100 µM (inactive)"
  },
  {
    "compound": "Cc1[nH]n(-c2nc(O)c(C)c(=O)[nH]2)c(=O)c1CCO",
    "GI50": "> 100 µM (inactive)"
  },
  {
    "compound": "CCCCCCCCCC1CC(=O)Oc2cccc(O)c21 (stereo not given)",
    "GI50": "20.9 µM (inactive)"
  },
  {
    "compound": "CC(=O)c1ccc(Oc2ccc(/C(C)=N\\N=C(N)N)cc2)cc1",
    "GI50": "5.62 µM (inactive)"
  }
]

Below is a list of compounds. For each, state its recorded GI50.
1. COc1ccc2c(c1)[n+]([O-])c(C(=O)C/C(=N/OCCCc1ccccc1)C(=O)NC13CC4CC(CC(C4)C1)C3)c(C)[n+]2[O-]
2. O=C1NC(=S)NC1C(Cc1ccccc1)c1ccco1 (stereo not given)

Given back:
["> 100 µM (inactive)", "> 100 µM (inactive)"]

Below is a list of compounds. For each, state its recorded GI50.
1. COc1cc2c(cc1O)CC13CCC(=O)N1CCc1cc(OC)c(O)c-2c13 (stereo not given)
2. CSc1nc(C)cc(=O)n1C1OC(COC(C)=O)C(OC(C)=O)C(OC(C)=O)C1OC(C)=O (stereo not given)

Given back:
> 68.1 µM (inactive)
> 100 µM (inactive)
